target: Serotonin 5-HT2B receptor (Homo sapiens); construct: NIMH Psychoactive Drug Screening Program (PDSP); experiment: PDSP radioligand binding; conditions: read-out: 3-MP concentration required to induce 50% inhibition of PDSP radioligand binding
Sequence (P41595 whole entry): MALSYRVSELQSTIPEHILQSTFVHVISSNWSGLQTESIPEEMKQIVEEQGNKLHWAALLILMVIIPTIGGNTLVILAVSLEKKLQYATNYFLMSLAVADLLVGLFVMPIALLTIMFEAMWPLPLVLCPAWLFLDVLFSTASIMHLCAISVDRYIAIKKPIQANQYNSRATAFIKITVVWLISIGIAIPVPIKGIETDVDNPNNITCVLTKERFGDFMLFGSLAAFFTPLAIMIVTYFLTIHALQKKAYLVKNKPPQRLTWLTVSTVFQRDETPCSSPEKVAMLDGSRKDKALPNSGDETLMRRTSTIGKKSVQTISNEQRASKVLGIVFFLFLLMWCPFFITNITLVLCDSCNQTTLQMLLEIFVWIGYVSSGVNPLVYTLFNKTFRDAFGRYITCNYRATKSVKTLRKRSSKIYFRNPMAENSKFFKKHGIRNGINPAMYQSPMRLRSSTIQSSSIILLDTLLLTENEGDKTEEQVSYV
pIC50: −log10 of the molar value.
experimentalReadout: pIC50

Enquiry: Dear colleague, please send me the reported pIC50 for Nc1cccc2c1C(=S)N(C1CCC(=O)NC1=O)C2=O (stereo not shown) [3-MP, 3-Monothiopomalidomide] when you can.
Return: < 5.00

* * *

assay: Brain entry in rats (brain and plasma at 5 h); type: in vivo; details: male, Fischer 344, rat, brain, po, 26.5 mg/kg, 26.5 mg/kg P.O., read-out: Brain/plasma ratio
experimentalReadout: Kp at 5 h
Give bare numbers.

Enquiry: Retrieve Kp at 5 h measured for Nc1cccc2c1C(=S)N(C1CCC(=O)NC1=O)C2=O (stereo not shown) [3-MP, 3-Monothiopomalidomide] and print it.
Return: 0.51

* * *

test: in vitro; settings: human, microsomes
experimentalReadout: half-life at 1 μM

Enquiry: Report measured half-life at 1 μM; entry is Nc1cccc2c1C(=S)N(C1CCC(=O)NC1=O)C2=O (stereo not shown) [3-MP, 3-Monothiopomalidomide]
Return: > 2.42 h

* * *

assay: Pharmacokinetics in the rat, I.V. and P.O.; format: in vivo; settings: plasma, iv; rat, I.V. bolus 5 mg/kg; read-out: Vdss
experimentalReadout: Vd (L/kg)
Give bare numbers, in L/kg.

Enquiry: Find the measured Vd of Nc1cccc2c1C(=S)N(C1CCC(=O)NC1=O)C2=O (stereo not shown) [3-MP, 3-Monothiopomalidomide] and report it.
Return: 0.693

* * *

molecular target: Muscarinic M2 receptor (Homo sapiens)
Sequence (P08172 whole entry): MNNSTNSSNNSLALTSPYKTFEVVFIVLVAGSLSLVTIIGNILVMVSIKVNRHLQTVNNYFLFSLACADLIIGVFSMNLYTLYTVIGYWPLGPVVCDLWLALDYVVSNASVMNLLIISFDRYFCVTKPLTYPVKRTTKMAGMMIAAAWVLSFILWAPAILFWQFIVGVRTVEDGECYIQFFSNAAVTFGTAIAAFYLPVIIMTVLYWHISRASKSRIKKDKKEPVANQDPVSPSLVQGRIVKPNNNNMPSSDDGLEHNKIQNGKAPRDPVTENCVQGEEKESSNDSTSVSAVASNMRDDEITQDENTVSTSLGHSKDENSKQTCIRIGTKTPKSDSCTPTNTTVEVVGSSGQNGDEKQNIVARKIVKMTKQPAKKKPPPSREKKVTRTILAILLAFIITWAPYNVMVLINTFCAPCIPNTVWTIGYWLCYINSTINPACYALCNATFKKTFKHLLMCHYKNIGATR
pIC50: −log10 of the molar value.
experimentalReadout: pIC50

Enquiry: Retrieve pIC50 measured for Nc1cccc2c1C(=S)N(C1CCC(=O)NC1=O)C2=O (stereo not shown) [3-MP, 3-Monothiopomalidomide] and print it.
Return: < 5.00

* * *

Target: Sigma 2 receptor (Rattus norvegicus)
Sequence (Q5U3Y7 1-176): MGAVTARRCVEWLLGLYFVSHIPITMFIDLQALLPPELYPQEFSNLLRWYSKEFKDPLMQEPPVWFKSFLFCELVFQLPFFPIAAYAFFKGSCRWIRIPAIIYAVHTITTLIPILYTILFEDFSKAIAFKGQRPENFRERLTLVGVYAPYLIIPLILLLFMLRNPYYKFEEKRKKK
experimentalReadout: IC50

Enquiry: Please report the measured IC50 for Nc1cccc2c1C(=S)N(C1CCC(=O)NC1=O)C2=O (stereo not shown) [3-MP, 3-Monothiopomalidomide]
Return: > 10 µM

* * *

Test: Pharmacokinetics in the rat, I.V. and P.O.
Format: in vivo
Conditions: rat, plasma, po, 5 mg/kg, rat plasma, P.O. 5 mg/kg
Description: To evaluate the metabolism of 3-MP, ex vivo plasma and liver homogenate studies were performed across species (rat and human), and in vivo pharmacokinetic studies were performed in rats following intravenous (I.V.) and oral (P.O.) administration of 3-MP (5 mg/kg) to time-dependently follow its disappearance from the plasma compartment. Fig. 5 3-MP pharmacokinetics. […]
experimentalReadout: half-life
Give me the value, and tack the unit on after it.

Enquiry: Indicate the recorded half-life value for this compound: Nc1cccc2c1C(=S)N(C1CCC(=O)NC1=O)C2=O (stereo not shown) [3-MP, 3-Monothiopomalidomide]
Return: 3.2 h

* * *

target: Serotonin 5-HT1E receptor (Homo sapiens, UniProt P28566)
Sequence (P28566 whole entry): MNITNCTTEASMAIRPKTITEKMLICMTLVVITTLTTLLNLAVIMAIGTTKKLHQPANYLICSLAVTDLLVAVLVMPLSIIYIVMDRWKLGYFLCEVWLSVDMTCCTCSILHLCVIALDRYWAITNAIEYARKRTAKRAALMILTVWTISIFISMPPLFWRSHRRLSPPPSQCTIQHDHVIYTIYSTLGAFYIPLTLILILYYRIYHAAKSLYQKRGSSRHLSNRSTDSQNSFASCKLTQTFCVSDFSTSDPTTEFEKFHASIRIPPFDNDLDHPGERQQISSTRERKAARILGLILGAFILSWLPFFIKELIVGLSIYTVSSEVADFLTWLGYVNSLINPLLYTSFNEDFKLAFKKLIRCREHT
experimentalReadout: IC50

Enquiry: Return reported IC50. Input compound: Nc1cccc2c1C(=S)N(C1CCC(=O)NC1=O)C2=O (stereo not shown) [3-MP, 3-Monothiopomalidomide]
Return: > 10 µM

All figures here come from paper PMC12397098.
